Tested on: Spontaneously hypertensive rats (SHR)
assay.overview: Antihypertensive activity in conscious spontaneously hypertensive rats (SHR), iv
Format: in vivo
experimental.conditions: Rattus norvegicus, 5 min, read-out: ED25 (mean arterial pressure)
quantity.name: ED25 (mg/kg)
Give a bare numeral; the unit mg/kg is implied.

Some compounds with known ED25 results, for comparison:
CCc1nn(C2CCCC2)c2nc(-c3ccnc(OCCN4CCOCC4)c3)[nH]c(=O)c12 [Example 124c, hydrate] :: 10.1
Cc1nn(C2CCCC2)c2nc(-c3ccncc3)[nH]c(=O)c12 :: 1
Cc1nn(C2CCCC2)c2nc(-c3cccnc3)[nH]c(=O)c12 :: 4.1
CCc1[nH]n(C2CCCC2)c2nc(-c3ccncc3OC)nc(=O)c1-2 [Example 128c] :: 0.23
CCOc1cnccc1-c1nc2n(C3CCCC3)[nH]c(CC)c-2c(=O)n1 [Example 119d] :: 4.8
Cc1nn(C(C)(C)C)c2nc(-c3ccncc3)[nH]c(=O)c12 :: 6.5

Request: Value wanted: ED25 (Spontaneously hypertensive rats (SHR)) of entry Cc1[nH]n(C2CCCC2)c2nc(-c3ccc4ncccc4c3)nc(=O)c1-2 [Example 14c]
Response: 7.8

Request: Value wanted: ED25 (Spontaneously hypertensive rats (SHR)) of entry `CCc1nn(C2CCCC2)c2nc(-c3ccncc3)[nH]c(=O)c12`
Response: 1.7

----------
Below, each of the molecules is paired with its reported Percent Inhibition cGMP-PDE I value.
System: cGMP-PDE I
assay.overview: cGMP-PDE I inhibitory activity (cyclic nucleotide hydrolysis, isolated PDE isozyme)
Assay type: biochemical, various animal species and man
experimental.conditions: 0.1 μM
Give a bare numeral; the unit % is implied.

Some molecules with known Percent Inhibition cGMP-PDE I results, for comparison:
Cc1[nH]n(C2CCCC2)c2nc(-c3cc[nH]c(=O)c3)nc(=O)c1-2 [Example 126b] :: 0
CCc1[nH]n(C2CCCC2)c2nc(-c3cccnc3)nc(=O)c1-2 [Example 137] :: 27
CCc1nn(C2CCCC2)c2nc(-c3ccnc(OCCN4CCOCC4)c3)[nH]c(=O)c12 [Example 124c, hydrate] :: 50
CCc1[nH]n(C(C)(C)C)c2nc(-c3ccncc3OC)nc(=O)c1-2 [Example 136] :: 39
CCc1[nH]n(C2CCCC2)c2nc(-c3ccnc(-n4ccnc4)c3)nc(=O)c1-2 [Example 121c] :: 11
CCc1[nH]n(C2CCCC2)c2nc(-c3ccnc(Cl)c3)nc(=O)c1-2 [Example 125b] :: 27
Cc1[nH]n(C2CCCC2C)c2nc(-c3ccncc3)nc(=O)c1-2 (centres unmarked) [Example 1e] :: 23
CCOc1cnccc1-c1nc2n(C3CCCC3)[nH]c(C(F)(F)F)c-2c(=O)n1 [Example 127c] :: 93
CC(C)(C)n1[nH]c(Cc2ccncc2)c2c(=O)nc(-c3ccncc3)nc1-2 [Example 123d] :: 55
COc1cnccc1-c1nc2n(C(C)(C)C)[nH]c(Cc3ccncc3)c-2c(=O)n1 [Example 134b] :: 55

Request: What value of Percent Inhibition cGMP-PDE I has been recorded for this entry: CCOc1cnccc1-c1nc2n(C3CCCC3)[nH]c(CC)c-2c(=O)n1 [Example 119d]
Response: 90

----------
Test system: cGMP-PDE I
assay.overview: cGMP-PDE I inhibitory activity (cyclic nucleotide hydrolysis, isolated PDE isozyme)
Format: biochemical, various animal species and man
experimental.conditions: 10 μM
Response field class: enum, chosen by comparing Percent Inhibition cGMP-PDE I against lower bin: < 40%; middle bin: ≥ 40% and < 70%; upper bin: ≥ 70%

Illustrative cases are given below, each with its answer.
CCN(CC)CCCn1nc(C)c2c(=O)[nH]c(-c3ccncc3)nc21 [Example 99, hydrate] :: lower bin
Cc1[nH]n(C)c2nc(-c3ccncc3)nc(=O)c1-2 :: lower bin
CSc1[nH]n(C2CCCC2)c2nc(-c3ccncc3)nc(=O)c1-2 [Example 19c] :: upper bin
CC(C)(C)c1nn(C2CCCC2)c2nc(-c3ccncc3)[nH]c(=O)c12 :: lower bin
CCc1nn(C2CCCC2)c2nc(-c3cccn4ccnc34)[nH]c(=O)c12 [Example 114c] :: middle bin

Request: Textbook exercise: identify the category of the compound given here, CCc1[nH]n(C2CCCC2)c2nc(-n3ccnc3)nc(=O)c1-2 [Example 122d] , according to its measured value.
Response: middle bin

Request: Textbook exercise: identify the category of the compound given here, CCc1[nH]n(C2CCCC2)c2nc(C3CCNC4CCCCC43)nc(=O)c1-2 (stereo not drawn) , according to its measured value.
Response: middle bin

Request: Textbook exercise: identify the category of the compound given here, `Cc1nn(CC2CCCC2)c2nc(-c3ccncc3)[nH]c(=O)c12` , according to its measured value.
Response: upper bin

Request: Textbook exercise: identify the category of the compound given here, `CCc1[nH]n(C2CCCC2)c2nc(-c3cc(C)nc(Cl)c3)nc(=O)c1-2` , according to its measured value.
Response: lower bin

Request: Textbook exercise: identify the category of the compound given here, Cc1nn(C2CCS(=O)(=O)C2)c2nc(-c3ccncc3)[nH]c(=O)c12 (stereo not drawn) [Example 18c] , according to its measured value.
Response: middle bin

Entry source: patent US5541187A
